B1: tRNA (parent)
chain: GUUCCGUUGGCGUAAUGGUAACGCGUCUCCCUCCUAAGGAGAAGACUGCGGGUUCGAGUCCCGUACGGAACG

# Variants of: B1
# test-name: yeast fitness relative to wild type (ratio to wild type); higher = fitter; tRNA-Arg(CCU), competitive growth, 37 C, YPD
Variants at the floor of the assay were thinned out.
Parameter threshold = 0.6. Response is TRUE when yeast fitness meets or exceeds it, else FALSE.

INSERT INTO assay_data (residue_change, category) VALUES
  ('C4A U32G A45G A69U', 'FALSE'),
  ('G52C U53C', 'FALSE'),
  ('G10A U54G C61U', 'FALSE'),
  ('C5G A65C', 'TRUE'),
  ('C4A U16C G17A U32C', 'FALSE'),
  ('U7G A40U', 'TRUE'),
  ('U2G C30G C61U G68A', 'FALSE'),
  ('U3A G10C G17C A37C G50C', 'FALSE'),
  ('A14G A15G U35C', 'FALSE'),
  ('A21C G25C U26G U59A G63C G68U', 'FALSE'),
  ('G23C C27G C61U', 'FALSE'),
  ('U35C C55A', 'FALSE'),
  ('G6C C11A C22U', 'FALSE'),
  ('C4U U35A', 'TRUE'),
  ('U3G G18A A65U', 'FALSE'),
  ('G39C C46U', 'TRUE'),
  ('C46G G51A G52A', 'FALSE'),
  ('C11G C30A G44C G52C U64G', 'FALSE'),
  ('U7C A14G C33G G68C', 'FALSE'),
  ('G41A C61U', 'TRUE');

Just for reference, the RNAGym collection of RNA variant scans (doi:10.1126/science.aae0568) is where these values come from.
